Origin of values: paper PMC4164440

- target of assay: UniProt P47820
- Sequence (P47820 36-1313): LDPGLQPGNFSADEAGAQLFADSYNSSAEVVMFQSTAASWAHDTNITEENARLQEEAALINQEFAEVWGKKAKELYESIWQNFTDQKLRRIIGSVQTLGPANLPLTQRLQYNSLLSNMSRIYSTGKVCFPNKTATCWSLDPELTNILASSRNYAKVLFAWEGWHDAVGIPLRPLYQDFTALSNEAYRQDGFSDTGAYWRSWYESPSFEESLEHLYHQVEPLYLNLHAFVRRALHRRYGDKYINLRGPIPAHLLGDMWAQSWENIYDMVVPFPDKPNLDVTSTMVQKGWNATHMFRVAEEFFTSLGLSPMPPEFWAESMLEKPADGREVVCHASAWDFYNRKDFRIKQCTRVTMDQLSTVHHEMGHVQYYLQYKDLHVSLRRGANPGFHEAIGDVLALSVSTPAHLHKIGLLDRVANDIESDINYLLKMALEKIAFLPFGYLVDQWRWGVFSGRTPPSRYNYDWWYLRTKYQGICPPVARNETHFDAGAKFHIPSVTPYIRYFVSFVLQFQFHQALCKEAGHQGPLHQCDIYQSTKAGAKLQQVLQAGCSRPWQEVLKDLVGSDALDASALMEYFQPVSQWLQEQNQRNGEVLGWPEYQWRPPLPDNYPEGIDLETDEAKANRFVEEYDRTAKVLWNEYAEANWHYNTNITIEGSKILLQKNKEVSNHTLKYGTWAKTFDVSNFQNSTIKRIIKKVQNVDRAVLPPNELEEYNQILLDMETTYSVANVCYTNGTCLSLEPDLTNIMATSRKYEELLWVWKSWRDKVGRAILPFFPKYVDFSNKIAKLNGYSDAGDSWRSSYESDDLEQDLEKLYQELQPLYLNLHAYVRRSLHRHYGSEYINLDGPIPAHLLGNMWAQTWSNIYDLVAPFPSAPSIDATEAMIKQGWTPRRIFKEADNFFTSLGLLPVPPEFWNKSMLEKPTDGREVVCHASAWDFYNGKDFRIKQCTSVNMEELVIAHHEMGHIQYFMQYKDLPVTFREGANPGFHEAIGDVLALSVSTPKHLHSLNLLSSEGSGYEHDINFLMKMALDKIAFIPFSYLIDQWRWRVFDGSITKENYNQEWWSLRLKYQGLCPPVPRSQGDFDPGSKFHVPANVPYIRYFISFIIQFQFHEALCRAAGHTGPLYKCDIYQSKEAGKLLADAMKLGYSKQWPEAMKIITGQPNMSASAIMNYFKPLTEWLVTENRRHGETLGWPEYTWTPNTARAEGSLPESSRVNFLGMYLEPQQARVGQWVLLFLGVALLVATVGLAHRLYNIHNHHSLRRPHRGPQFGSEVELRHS
- test name: Ex vivo ACE inhibition assay: Ang II production in endothelium-denuded thoracic aorta rings (UPLC-MS)
Where a SMILES comes first, the peptide text is derived from it.
Below: a set of entries, each annotated with reported IC50.

- compound: "CC(C)[C@H](NC(=O)[C@@H](N)CC(=O)O)C(=O)N[C@@H](Cc1c[nH]c2ccccc12)C(=O)N[C@@H](Cc1ccc(O)cc1)C(=O)O [DVWY] (H-DVWY-OH)"
  IC50, µM: 70.5
- compound: "C[C@@H](O)[C@H](NC(=O)[C@@H](N)Cc1c[nH]c2ccccc12)C(=O)N[C@@H](Cc1ccccc1)C(=O)N[C@@H](CCCNC(=N)N)C(=O)O [WTFR] (H-WTFR-OH)"
  IC50, µM: 5.64
- compound: "NC(=O)CC[C@H](NC(=O)[C@@H](N)Cc1ccccc1)C(=O)O [FQ]"
  IC50, µM: 90.9
- compound: "C[C@H](NC(=O)[C@H](CC(=O)O)NC(=O)[C@@H](N)Cc1ccccc1)C(=O)N[C@@H](CCCNC(=N)N)C(=O)N[C@H](C(=O)O)[C@@H](C)O [FDART] (H-FDART-OH)"
  IC50, µM: 41.7

====

Below: a set of entries, each annotated with reported IC50.
- target of assay: ACE (EC 3.4.15.1) purified from the rabbit lungs (Oryctolagus cuniculus, UniProt P12822)
- Construct: ACE (EC 3.4.15.1) purified from the rabbit lungs; purchased Sigma-Aldrich Japan K.K; host or cells: rabbit lung (tissue-purified)
- Sequence (P12822 34-1310): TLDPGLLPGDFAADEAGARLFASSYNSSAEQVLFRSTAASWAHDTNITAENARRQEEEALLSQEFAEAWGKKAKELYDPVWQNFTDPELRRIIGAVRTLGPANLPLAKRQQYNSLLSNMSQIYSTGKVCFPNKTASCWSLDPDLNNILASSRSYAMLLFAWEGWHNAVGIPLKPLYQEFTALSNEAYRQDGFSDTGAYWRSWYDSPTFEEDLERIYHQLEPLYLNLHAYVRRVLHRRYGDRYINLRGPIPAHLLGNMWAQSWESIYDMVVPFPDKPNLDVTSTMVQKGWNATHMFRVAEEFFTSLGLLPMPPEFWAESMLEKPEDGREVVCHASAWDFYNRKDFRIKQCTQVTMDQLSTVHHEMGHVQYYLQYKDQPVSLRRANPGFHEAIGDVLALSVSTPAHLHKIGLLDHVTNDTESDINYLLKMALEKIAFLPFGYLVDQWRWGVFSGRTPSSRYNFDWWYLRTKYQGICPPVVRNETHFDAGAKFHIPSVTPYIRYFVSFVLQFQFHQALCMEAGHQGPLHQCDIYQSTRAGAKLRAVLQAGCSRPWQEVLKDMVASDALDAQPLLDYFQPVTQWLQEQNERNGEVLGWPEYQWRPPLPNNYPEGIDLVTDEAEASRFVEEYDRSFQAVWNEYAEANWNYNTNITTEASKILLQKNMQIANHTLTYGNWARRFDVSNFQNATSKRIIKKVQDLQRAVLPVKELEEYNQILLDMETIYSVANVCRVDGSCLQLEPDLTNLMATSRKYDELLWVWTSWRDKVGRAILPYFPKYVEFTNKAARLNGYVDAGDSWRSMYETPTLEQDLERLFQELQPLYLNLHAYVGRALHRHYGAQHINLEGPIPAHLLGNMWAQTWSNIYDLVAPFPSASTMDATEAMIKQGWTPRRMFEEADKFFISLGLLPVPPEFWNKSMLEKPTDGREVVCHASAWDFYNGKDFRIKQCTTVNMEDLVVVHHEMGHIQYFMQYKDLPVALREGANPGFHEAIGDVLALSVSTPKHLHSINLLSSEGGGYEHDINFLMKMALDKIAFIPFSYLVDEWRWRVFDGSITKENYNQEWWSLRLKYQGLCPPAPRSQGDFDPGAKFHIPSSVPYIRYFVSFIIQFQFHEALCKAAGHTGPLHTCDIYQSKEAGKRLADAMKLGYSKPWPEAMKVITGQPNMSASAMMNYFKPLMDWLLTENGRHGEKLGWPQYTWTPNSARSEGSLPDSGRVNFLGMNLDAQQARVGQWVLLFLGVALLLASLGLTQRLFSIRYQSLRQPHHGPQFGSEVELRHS
- test name: biochemical
Where a SMILES comes first, the peptide text is derived from it.
readout name: IC50

- compound: "CC(C)[C@H](NC(=O)[C@@H](N)CC(=O)O)C(=O)N[C@@H](Cc1c[nH]c2ccccc12)C(=O)N[C@@H](Cc1ccc(O)cc1)C(=O)O [DVWY] (H-DVWY-OH)"
  readout name: "IC50"
  reported result: "0.69 mM"
- compound: "C[C@@H](O)[C@H](NC(=O)[C@@H](N)Cc1c[nH]c2ccccc12)C(=O)N[C@@H](Cc1ccccc1)C(=O)N[C@@H](CCCNC(=N)N)C(=O)O [WTFR] (H-WTFR-OH)"
  readout name: "IC50"
  reported result: "6.7 mM"
- compound: "C[C@H](NC(=O)[C@H](CC(=O)O)NC(=O)[C@@H](N)Cc1ccccc1)C(=O)N[C@@H](CCCNC(=N)N)C(=O)N[C@H](C(=O)O)[C@@H](C)O [FDART] (H-FDART-OH)"
  readout name: "IC50"
  reported result: "1.9 mM"
